target: human NOXO1 tandem SH3 domains (SH3AB) (human); test: ITC; data not shown; peptides of the human NOXO1 C-terminal tail titrated against human NOXO1 SH3 domains
measured quantity: pKd
Note on pKd: it is the negative log10 of concentration, concentration in mol/L.

-- ask So what does the record say about pKd for TAPPPTVPTRPSPGAIQSRCCTVTRRALE [peptideA (amino acids 319–347 of human NOXO1)] ?
-- reply 4.30
